Test system: Mus musculus
protocol.description: Antitumor activity against P388 leukemia in mice at a dose of 2.5 mg/kg administered intraperitoneally for 5 days
Format: functional
test.conditions: route intraperitoneal
observation.type: T/C (%)
Numbers only, in %.

Below, 5 compounds whose answers are already recorded.
substance.smiles	T/C (%)
CN(C)CCCNc1[nH]ccc2nc3ccc(O)cc3c1-2	111
CCN(CC)CCCNc1ncc(C)c2c1c1cc(O)ccc1n2C	149
CN(C)CCCNc1nccc2c1c1cc(O)ccc1n2C	137
Cc1c[nH]c(NCCCN(C)C)c2c3cc(O)ccc3nc1-2	145
CCN(CC)CCCNc1[nH]cc(C)c2nc3ccc(O)cc3c1-2	162

Now consider the entry below.
T/C lookup needed for Cc1cnc(NCCCN(C)C)c2c3cc(O)ccc3n(C)c12 , thanks.
184

###

System: Calf thymus DNA
protocol.description: Apparent DNA affinity constant
Assay type: nucleic-acid assay
test.conditions: Bos taurus
Sorting guide: entries reporting K aff beneath 200000 M⁻¹ go in the Satisfied pile, the rest go in the Not satisfied pile.

molecule	group.label
COc1ccc2c(c1)c1c(NCC(C)CN(C)C)ncc(C)c1n2C (centres undefined)	Satisfied
CN(C)CCCNc1[nH]ccc2nc3ccc(O)cc3c1-2	Satisfied

Would you kindly verify if K aff of CCN(CC)CCCCNc1ncc(C)c2c1c1cc(O)ccc1n2C is strictly less than 200000 M⁻¹?
Not satisfied

Would you kindly verify if K aff of Cc1c[nH]c(NCCNCCO)c2c3ccccc3nc1-2 is strictly less than 200000 M⁻¹?
Satisfied

Would you kindly verify if K aff of CCN(CC)CCCNc1[nH]cc(C)c2nc3ccc(OC)cc3c1-2 is strictly less than 200000 M⁻¹?
Not satisfied

Would you kindly verify if K aff of COc1ccc2c(c1)c1c(NCCCN(C)C)ncc(C)c1n2C is strictly less than 200000 M⁻¹?
Not satisfied

Would you kindly verify if K aff of Cc1c[nH]c(NCCCN(C)C)c2c3ccccc3nc1-2 is strictly less than 200000 M⁻¹?
Satisfied

Would you kindly verify if K aff of Cc1cnc(NCCCN2CCCC2)c2c3cc(O)ccc3n(C)c12 is strictly less than 200000 M⁻¹?
Not satisfied

###

Test system: Calf thymus DNA
protocol.description: Apparent DNA affinity constant
Assay type: nucleic-acid assay
test.conditions: Bos taurus
observation.type: K aff (M⁻¹)
One number for each entry, in M⁻¹.

Below, 2 compounds whose answers are already recorded.
compound	study.target	K aff [M⁻¹]
CCN(CC)CCCNc1ncc(C)c2c1c1ccccc1n2C	Calf thymus DNA	160000
CCN(CC)CC(O)CNc1ncc(C)c2c1c1cc(O)ccc1n2C (stereo unspecified)	Calf thymus DNA	230000

Quick one: give me K aff for each item below, same order please.
1. CCN(CC)CCCNc1[nH]cc(C)c2nc3ccc(O)cc3c1-2
2. CCNCCCNc1[nH]cc(C)c2nc3ccc(OC)cc3c1-2
3. CCN(CC)CCCCNc1ncc(C)c2c1c1cc(OC)ccc1n2C
4. Cc1cnc(NCC(C)CN(C)C)c2c3cc(O)ccc3n(C)c12 (stereo unspecified)
5. CCN(CC)CCCNc1nccc2c(C)c3[nH]c4ccc(OC)cc4c3c(C)c12
6. CCN(CC)CCNc1ncc(C)c2c1c1cc(OC)ccc1n2C
7. Cc1cnc(NCCCN(C)C)c2c3cc(O)ccc3n(C)c12

[200000, 220000, 460000, 140000, 700000, 80000, 270000]

Quick one: give me K aff for each item below, same order please.
1. CCN(CC)CCCNc1ncc(C)c2c1c1cc(O)ccc1n2C
2. COc1ccc2c(c1)c1c(NCCCN3CCCC3)ncc(C)c1n2C

240000
300000

###

Test system: Calf thymus DNA
protocol.description: Apparent DNA affinity constant
Type: nucleic-acid assay
test.conditions: Bos taurus
Answer each item with its documented K aff.
Provide a numeric answer, followed by its unit.

Below, 5 molecules whose answers are already recorded.
substance.smiles	K aff
CCN(CC)CCCNc1ncc(C)c2c1c1cc(OC)ccc1n2C	250000 M⁻¹
CN(C)CCCNc1nccc2c1c1cc(O)ccc1n2C	120000 M⁻¹
Cc1c[nH]c(NCCCN(C)C)c2c3cc(O)ccc3nc1-2	210000 M⁻¹
CCN(CC)CCCNc1[nH]cc(C)c2nc3ccccc3c1-2.O=C(O)/C=C\C(=O)O.O=C(O)/C=C\C(=O)O	150000 M⁻¹
Cc1cnc(NCCCN(C)C)c2c3ccccc3n(C)c12	150000 M⁻¹

Now consider the entry below.
K aff lookup needed for CCN(CC)CCNc1ncc(C)c2c1c1cc(O)ccc1n2C , thanks.
110000 M⁻¹
